Tested on: Ipomoea hederacea (IPOHE)
Assay: B1 Post-emergence efficacy, glasshouse pot test
Assay type: in vivo
Conditions: post-emergence application, 1000 g/ha, evaluated after 13 days
RESULT_TYPE: IPOHE: percentage damage caused to the plant (five point scale)

MOL_SMILES: CSc1nn(C)c(=O)c(-c2c(Cl)ccc(Cl)c2OCc2ccccc2)c1O
RECORDED_MEASUREMENT: 5 (5=80-100%)

Quick batch: IPOHE: percentage damage caused to the plant (five point scale) for everything below.
1. Cc1nn(C)c(=O)c(-c2c(C(F)(F)F)ccc(F)c2OCc2ccccc2)c1O
2. COc1ccc(COc2c(Cl)ccc(Cl)c2-c2c(O)c(C)nn(C)c2=O)cc1
3. Cc1nn(C)c(=O)c(-c2c(C(F)(F)F)ccc(Cl)c2OCc2ccccc2)c1O
4. Cc1nn(C2CC2)c(=O)c(-c2c(Cl)ccc(Cl)c2OCc2ccccc2)c1O
5. CN(C)c1nn(C)c(=O)c(-c2c(Cl)ccc(Cl)c2OCc2ccccc2)c1O
6. Cc1nn(C)c(=O)c(-c2c(Cl)ccc(Cl)c2OCc2ccc(Cl)c(Cl)c2)c1O
7. Cc1nn(C)c(=O)c(-c2c(F)ccc(F)c2OCc2ccccc2)c1O

1: 5 (5=80-100%); 2: 5 (5=80-100%); 3: 5 (5=80-100%); 4: 5 (5=80-100%); 5: 5 (5=80-100%); 6: 5 (5=80-100%); 7: 5 (5=80-100%)
